Readings of inhibition at 10 µM for the listed molecules
Tested on: HCV Replicon IA
Protocol Notes: HCV replicon assay in Huh-7 cells, genotype 1a
Assay type: cell-based
Condition Notes: Hepatitis C virus, 72 h, Huh-7 HCV replicon cells, 3 days
Numeric only. Scale: %

# Molecule, System Under Test, Reported Property, Unit Tag, Measured Value
data = [
    ("O=C(c1cc(O)c2cc(-c3ccoc3)cc(C(F)(F)F)c2n1)N1CC=C(c2ccccc2)CC1", "HCV Replicon IA", "inhibition at 10 µM", "%", 87.4),
]

Please look up its inhibition at 10 µM: O=C(NCc1ccncc1)c1cc(O)c2cc(-c3cn[nH]c3)cc(C(F)(F)F)c2n1
43.4

Which inhibition at 10 µM is listed for O=C(c1cc(O)c2cc(-c3ccoc3)cc(C(F)(F)F)c2n1)N1CCC(c2cccc(F)c2)CC1 ?
98.1

// lookup inhibition at 10 µM for O=C(NCc1cocn1)c1cc(O)c2cc(-c3cn[nH]c3)cc(C(F)(F)F)c2n1
80.7

// lookup inhibition at 10 µM for O=C(NCc1cccs1)c1cc(Cl)c2cc(-c3ccoc3)cc(C(F)(F)F)c2n1
98.7

Fill blank: measured inhibition at 10 µM of the molecule CC(NC(=O)c1cc(O)c2cc(-c3cn[nH]c3)cc(C(F)(F)F)c2n1)c1ccccn1 (stereo not shown) is ____.
86.1

###

System: HCV Replicon IB
Protocol Notes: HCV replicon assay in Huh-7 cells, genotype 1b (Rluc luciferase readout)
Format: cell-based, hepatitis C virus
Condition Notes: Hepatitis C virus, Huh-7, 72 h, HCV1B replicon, Huh-7 cells, 3 days; read-out: EC50_HCV1B_
Reported Property: EC50 (nM)
Response body: numeric value in nM, unit text excluded.

For orientation, consider the following solved cases.
# Smiles Str, Measured Value
data = [
    ("Cc1cc(-c2nnc(NCC3OCCO3)o2)nc2c(C3(C)SCCS3)cc(C3CC3)cc12", 46.7),
    ("Cc1cc(-c2nnc(NCC3(CO)CC3)s2)nc2c(C(F)(F)F)cc(C3CC3)cc12", 1410),
    ("Cc1cc(-c2nnc(N[C@H]3C[C@@](C)(O)C3)o2)nc2c(C(C)(C)C)cc(C3CC3)cc12", 1.35),
]

We next turn to a different molecule, shown below.
Would you mind telling me what EC50 value was observed for CC(C)(O)CCNc1nnc(-c2cc(N)c3cc(C4CC4)cc(C(C)(C)C)c3n2)s1 ?
4.85

###

Tested on: HCV Replicon IB
Protocol Notes: HCV replicon assay in Huh-7 cells, genotype 1b (Rluc luciferase readout)
Format: cell-based, hepatitis C virus
Condition Notes: Hepatitis C virus, 72 h; 10 uM; 1b-Rluc replicon, Huh-7 cells, 3 days; read-out: Inhibition @ 10 uM in 1b-Rluc
Reported Property: inhibition at 10 µM (%)
Provide only the numeric value, understood in %.

Field: example entries. Status: answers known.
# Compound, inhibition at 10 µM (%)
records = [
    ("CCC(CNC(=O)c1cc(Cl)c2cc(OC(F)F)cc(C(F)(F)F)c2n1)=NOC", 64),
    ("Cc1cc(C(=O)NCC2(O)CCCC2)nc2c(C(F)(F)F)cc(C3CC3)cc12", 99.9),
    ("Cc1cc(C(=O)NCc2ccccn2)nc2c(C(F)(F)F)cc(C3OC3(C)C)cc12 (stereo not shown)", 94.8),
]

Query compound follows.
# lookup: inhibition at 10 µM of Cc1cc(C(=O)NCc2ccccn2)nc2c(C(F)(F)F)cc(C3(C)CC3)cc12
99

###

Test system: HCV Replicon IB
Protocol Notes: HCV replicon assay in Huh-7 cells, genotype 1b (Rluc luciferase readout)
Assay type: cell-based, hepatitis C virus
Condition Notes: Hepatitis C virus, Huh-7, 72 h, HCV1B replicon, Huh-7 cells, 3 days; read-out: EC50_HCV1B_
So basically: is EC50 under 0.006 µM? Then y. Not under? Then n.

Answered examples (3):
# Compound, System Under Test, Classification
data = [
    ("CC(C)(C)c1cc(C2CC2)cc2c(N)cc(-c3nnc(NCCCO)s3)nc12 [Compound 384]", "HCV Replicon IB", "y"),
    ("Cc1cc(-c2nnc(NCC(=O)N(C)C)o2)nc2c(C(C)(C)C)cc(OCC(F)(F)F)cc12 [Compound 453]", "HCV Replicon IB", "n"),
    ("Cc1cc(-c2nnc(N[C@H]3C[C@@](O)(CO)C3)o2)nc2c(C(C)(C)C)cc(OCC(F)(F)F)cc12 [Compound 500]", "HCV Replicon IB", "n"),
]

Is EC50 of Cc1cc(-c2nnc(N[C@H]3CC[C@H](O)C3)o2)nc2c(C(C)(C)C)cc(OCC(F)(F)F)cc12 (racemic) [Compound 477] strictly below 0.006 µM?
y

Would you kindly verify if EC50 of CC(=O)N1CCNC(CNC(=O)c2cc(N)c3cc(OC(F)F)cc(C(F)(F)F)c3n2)C1 (centres unmarked) [Compound 317] is strictly less than 0.006 µM?
n

Record CCC(C)(O)c1cc(C2CC2)cc2c(C)cc(-c3nnc(NCC4OCCO4)o3)nc12 (centres unmarked) [Compound 543] : is its EC50 strictly below 0.006 µM?
n

Given the entry CNC(=O)[C@@H]1CSC(c2cc(C)c3cc(OC(F)F)cc(C(F)(F)F)c3n2)=N1 [Compound 341] , would its reported EC50 be below 0.006 µM?
n

###

System: HCV Replicon IB
Protocol Notes: HCV replicon assay in Huh-7 cells, genotype 1b (Rluc luciferase readout)
Assay type: cell-based, hepatitis C virus
Condition Notes: HCV1B replicon, Huh-7 cells, 3 days; read-out: EC50_HCV1B_
Reported Property: pEC50
# pEC50 is unitless: minus log10 of the molar concentration; print number only

# Compound, Measured Value
rows = [
    ("CC(C)(C)c1cc(C2CC2)cc2c(N)cc(C(=O)NCC3CS(=O)(=O)CCN3)nc12 (stereo not drawn) [Compound 324]", 8.44),
    ("CC(C)(C)c1cc(C2CC2)cc2c(N)cc(-c3nnc(NC[C@@H]4CCCO4)o3)nc12 [Compound 359]", 8.92),
    ("Cc1cc(-c2nnc(NCC[C@H](C)O)s2)nc2c(C(C)(C)C)cc(C3CC3)cc12 [Compound 385]", 8.76),
    ("Cc1cc(-c2nnc(N[C@H]3C[C@](O)(CO)C3)o2)nc2c(C(C)(C)C)cc(C3CC3)cc12 [Compound 513]", 8.09),
    ("COC[C@]1(O)C[C@H](Nc2nnc(-c3cc(C)c4cc(OCC(F)(F)F)cc(C(C)(C)C)c4n3)o2)C1 [Compound 504]", 8.01),
]

For Cc1cc(-c2nnc(NCC[C@H](C)O)s2)nc2c(C(C)(C)C)cc(C3CC3)cc12 [Compound 403] , what is its reported pEC50?
8.19

###

Each entry below carries its reported inhibition at 10 µM.
System: HCV Replicon IB
Protocol Notes: HCV replicon assay in Huh-7 cells, genotype 1b (Rluc luciferase readout)
Assay type: cell-based, hepatitis C virus
Condition Notes: Hepatitis C virus, 72 h; 10 uM; 1b-Rluc replicon, Huh-7 cells, 3 days; read-out: Inhibition @ 10 uM in 1b-Rluc
Form entry: value (%) — number only.

Example entries begin here.
# Smiles Str, System Under Test, inhibition at 10 µM, %
measured = [
    ("Nc1cc(C(=O)NCc2ccccn2)nc2c(OC(F)(F)F)cc(C3CC3)cc12", "HCV Replicon IB", 100),
    ("Cc1cc(C(=O)NCC2CC2)nc2c(C(F)(F)F)cc(C3CC3)cc12", "HCV Replicon IB", 99.7),
    ("CS(=O)(=O)Nc1nc(C(=O)NCc2cccs2)nc2c(C(F)(F)F)cc(-c3ccccc3)cc12", "HCV Replicon IB", 95.1),
    ("Cc1cc(-c2nnc(NCCC(C)(C)O)s2)nc2c(C(F)(F)F)cc(C3CC3)cc12", "HCV Replicon IB", 98.1),
    ("Cc1cc(-c2nnc(NC(C)(C)CO)o2)nc2c(C(F)(F)F)cc(C3CC3)cc12", "HCV Replicon IB", 99.2),
    ("Cc1cc(C(=O)NCc2ccccn2)nc2c(C(F)(F)F)cc(OC(F)F)cc12", "HCV Replicon IB", 99.9),
]

What inhibition at 10 µM value was documented for this compound, Cc1cc(C(=O)NCC2(NC(=O)OC(C)(C)C)CC2)nc2c(C(F)(F)F)cc(C3CC3)cc12 ?
84.5

Which inhibition at 10 µM value is on record for Cc1cc(C(=O)NCc2ccccn2)nc2c(C(F)(F)F)cc(C3CCCC3)cc12 ?
99

###

Test system: HCV Replicon IA
Protocol Notes: HCV replicon assay in Huh-7 cells, genotype 1a
Format: cell-based
Condition Notes: Hepatitis C virus, 72 h, Huh-7 HCV replicon cells, 3 days
Reported Property: inhibition at 10 µM (%)
Report as a plain number; the unit % is understood.

Here is how some compounds turned out for inhibition at 10 µM.
# Compound, System Under Test, inhibition at 10 µM [%]
records = [
    ("O=C(Cc1cccs1)Nc1cc(O)c2cc(-c3ccccc3)cc(C(F)(F)F)c2n1 [Compound 40]", "HCV Replicon IA", 99.7),
    ("COc1cc(C(=O)NCc2cccs2)nc2c(C(F)(F)F)cc(-c3ccoc3)cc12 [Compound 27]", "HCV Replicon IA", 65.5),
    ("O=C(NCc1ccc(Cl)s1)c1cc(O)c2cc(-c3ccoc3)cc(C(F)(F)F)c2n1 [Compound 23]", "HCV Replicon IA", 99.9),
    ("O=C(NCc1cccs1)c1cc(Cl)c2cc(-c3ccccc3)cc(C(F)(F)F)c2n1 [Compound 65]", "HCV Replicon IA", 97.5),
    ("O=C(NCc1cccs1)c1nc(O)c2cc(-c3ccccc3)cc(C(F)(F)F)c2n1 [Compound 47]", "HCV Replicon IA", 99.7),
]

Which inhibition at 10 µM is listed for Oc1cc(-c2nnc(Nc3ccccc3)o2)nc2c(C(F)(F)F)cc(-c3ccccc3)cc12 [Compound 54] ?
97.9

Look up inhibition at 10 µM for this compound: O=C(NCc1cccs1)c1cc(O)c2cc(-c3ccccc3)c(F)c(C(F)(F)F)c2n1 [Compound 59]
92.7

Look up inhibition at 10 µM: O=C(NCc1cccs1)c1cc(O)c2cc(-c3cc[nH]n3)cc(C(F)(F)F)c2n1 [Compound 35]
94.2

Would you kindly share the measured inhibition at 10 µM for Cc1cc(C(=O)NCc2cccs2)nc2c(C(F)(F)F)cc(-c3ccoc3)cc12 [Compound 28] ?
99.8

# inhibition at 10 µM lookup, item O=C(NCc1ccc(Cl)s1)c1cc(O)c2cc(-c3cc[nH]n3)cc(C(F)(F)F)c2n1 [Compound 14]
84.2

Requested read-out: inhibition at 10 µM. Entry: O=C(NCc1cncs1)c1cc(O)c2cc(-c3cn[nH]c3)cc(C(F)(F)F)c2n1 [Compound 8]
98.8

State the recorded inhibition at 10 µM for this entry: O=C(NCc1ccccn1)c1cc(Cl)c2cc(-c3ccccc3)cc(C(F)(F)F)c2n1 [Compound 67]
96.9

Please look up its inhibition at 10 µM: Nc1cc(C(=O)NCc2ccccn2)nc2c(C(F)(F)F)cc(-c3ccccc3)cc12 [Compound 68]
99.9
